test system: Colon cancer organoid; assay: Identification of compartment-specific drug sensitivities in O20 CRC organoid-stroma F20 CAF co-cultures. Organoid is transduced with Lucferase2-P2A-EGFP lentivirus, fibroblast with Renilla-dsRed lentivirus. Dual-Glo Luciferase assay is used to report viability data.; assay type: functional, Homo sapiens; set-up: dose or concentration left out as unconfirmed; settings: Transduced with Lucferase2-P2A-EGFP lentivirus
Cell Viability below 6% gives not met; Cell Viability at or above it gives met.

[ask] Identify whether the reported Cell Viability of the following compound is 6% or greater: `CNc1nc(-c2ccc3c(N)n[nH]c3c2)cc(N2C[C@@H](C(=O)NC3CCCCC3)CC[C@H]2C)n1`
[reply] met

[ask] Textbook exercise: given the entry `Cc1c(N2CCCC2)nc2ccc(Br)cc2c1C(=O)NC[C@H](CCC(=O)O)c1ccccc1Cl` , state whether its Cell Viability is greater than or equal to 6%.
[reply] met

[ask] Identify whether the reported Cell Viability of the following compound is 6% or greater: `COc1cc(C(=O)O)ncc1C#Cc1ccccc1NS(=O)(=O)c1cccc2c(N(C)C)ccnc12`
[reply] met

[ask] Quick check: does `COc1cc(Nc2nc(C)cc(-c3cnn4nc(OC)ccc34)n2)cc(C(F)(F)F)c1` have Cell Viability greater than or equal to 6%?
[reply] met

[ask] Could you verify whether the entry `CCS(=O)(=O)Nc1ccc(Oc2ccc(F)cc2F)c(-c2cn(C)c(=O)c3[nH]ccc23)c1` shows Cell Viability of no less than 6%?
[reply] not met

[ask] Threshold query (Cell Viability >= 6%) on `COCc1nc2cnc3cc(-c4c(C)noc4C)c(OC[C@H]4CCNC4)cc3c2n1[C@H](C)c1ccccc1`
[reply] met

---

tested on: Colon cancer organoid; experiment: Identification of compartment-specific drug sensitivities in O20 CRC organoid-stroma F20 CAF co-cultures. Organoid is transduced with Lucferase2-P2A-EGFP lentivirus, fibroblast with Renilla-dsRed lentivirus. Dual-Glo Luciferase assay is used to report viability data.; assay type: functional, Homo sapiens; set-up: dose or concentration left out as unconfirmed; conditions: Transduced with Lucferase2-P2A-EGFP lentivirus
# Cell Viability per entry
Form field: result (number plus unit)

Worked examples follow.
CPD_SMILES: CC(=O)c1c(NS(C)(=O)=O)c2cc(-c3ccc(Cl)cc3)c(-c3ccc(Cl)cc3Cl)nc2n(C)c1=O
METRIC: Cell Viability
RESULT: 159.821%
//
CPD_SMILES: CC(C)(C)c1cc(NC(=O)Nc2ccc(-c3cn4c(n3)sc3cc(OCCN5CCOCC5)ccc34)cc2)no1
METRIC: Cell Viability
RESULT: 58.8072%
//
CPD_SMILES: CC[C@@H]1C(=O)N(C)c2cnc(Nc3ccc(C(=O)NC4CCN(C)CC4)cc3OC)nc2N1C1CCCC1
METRIC: Cell Viability
RESULT: 3.721%

[ask] Any idea what its Cell Viability is? The molecule is `CC1=C(C)C(=O)C(C(C)(C)CC(=O)N(CCCCSC[C@H]2O[C@@H](n3cnc4c(N)ncnc43)[C@@H]3OC(C)(C)O[C@@H]32)Cc2cccc(-c3ccc(Cl)cc3)c2)=C(C)C1=O`
[reply] 98.0775%

[ask] I'd like to know its Cell Viability. The molecule in question is `CO[C@H]1CC[C@H](CNc2ccc(S(=O)(=O)NC(=O)c3ccc(N4CCN(CC5=C(c6ccc(Cl)cc6)CC(C)(C)CC5)CC4)cc3Oc3cnc4[nH]ccc4c3)cc2[N+](=O)[O-])CC1`
[reply] 16.4932%

[ask] Endpoint output: Cell Viability of `CCn1cc(-c2ccnc3[nH]c(-c4cccc(CN(C)C)c4)cc23)c(-c2ccc(NC(=O)N(C)C)cc2)n1` . Value?
[reply] 9.494%

[ask] # Cell Viability lookup, item `Cc1cnc(Nc2ccc(F)cc2Cl)nc1-c1c[nH]c(C(=O)N[C@H](CO)c2cccc(Cl)c2)c1`
[reply] 6.88%

[ask] Reported Cell Viability for `Cc1ccc(C(=O)Nc2cccc(C(F)(F)F)c2)cc1Nc1nc(-c2cccnc2)nc2c1cnn2C` : what is it?
[reply] 143.016%

[ask] Cell Viability for `CCCOc1ccn2c(C(C)=O)cc(-c3cccc(OC)c3)c2c1` ?
[reply] 77.121%

[ask] Consider the molecule `O=C(NCc1ncc(C(F)(F)F)cc1Cl)c1ccc2c(c1)C1(CCS(=O)(=O)CC1)[C@@H](C1CC1)N2S(=O)(=O)c1ccc(F)cc1` and give its measured Cell Viability.
[reply] 102.274%

[ask] What does the data say about its Cell Viability? Entry: `O=C(c1ccc(C(=O)N2CCC(N3CCCC3)CC2)c(Nc2ccccc2)c1)N1CCC(N2CCCC2)CC1`
[reply] 130.421%

[ask] Need Cell Viability, item `O=C(Nc1cccnc1)c1cc(-c2ccnc(F)c2)ccc1OCc1ccccc1`
[reply] 125.357%

[ask] Recorded Cell Viability for `CO[C@@H](C)c1c(Nc2ccc([C@H](N(C)C(=O)C3CCS(=O)(=O)CC3)C(F)(F)F)cc2)cnc2cc(Cl)nn12` , please?
[reply] 88.0389%

[ask] Find the recorded Cell Viability belonging to `C[C@@H]1CC(=O)Nc2cccc(-c3ccc4c(c3)c(-c3cnn(C)c3)nn4C)c2N1` and report it.
[reply] 69.4002%

[ask] // lookup Cell Viability for `COc1ccc2c(c1)O[C@@H](c1ccc(OC)c(OC)c1)C[C@H]2NC(=O)C1(c2ccc3c(c2)OC(F)(F)O3)CC1`
[reply] 84.651%

The reported measurements were obtained from ChEMBL document CHEMBL5608141.
